# tested-on: T1, Rluc-ADGRG2-ΔGPS-β I844A (mouse, UniProt Q8CJ12-3 38-995, I844A)
# T1 construct: ADGRG2 (GPR64), mouse, ADGRG2-ΔGPS-β: the entire ECD removed; source: HEK293, transfected, on cells; not shown: Rluc, N-terminal, kept
# method-notes: FRET or BRET; HEK293 cells transfected with Rluc-ADGRG2-ΔGPS-β WT or mutants, stimulated by increasing concentrations of FITC-conjugated VPM-p15; saturation curves fitted with GraphPad; each experiment repeated 6 times
# measurement-setup: one partner purified
Non-standard residues stand in square brackets, D forms with d. Primed or numbered codes have the meaning given here. No end group written: not given here. Phe(4-Me) = Cc1ccc(C[C@H](N)C(=O)O)cc1; FITC′ = not defined here
endpoint-label: EC50 (nM)
Give the number; nM is assumed, so skip it.

In: For VS[Phe(4-Me)]GILLDLSRTSLP-{FITC′} [FITC-conjugated VPM-p15 (ADGRG2 Stachel peptide p15 T1V/F3Phe(4-Me))] , what is its reported EC50?
Out: 1540

The origin of these recorded values is paper PMC7948503.
